# study.system: Serine/threonine-protein kinase 10 (Homo sapiens)
# settings: at 1 µM
Doc: threshold 90% (exclusive). Items with residual activity beneath it return yes (1); others return no (0).

Recorded results for 5 compounds are shown here.
INSERT INTO assay_data (smiles_representation, qualitative_label) VALUES
  ('Cc1ccc(NC2=CC(=O)c3sc(C)nc3C2=O)cc1', 'no (0)'),
  ('O=Nc1c(-c2c(O)[nH]c3ccccc23)[nH]c2ccccc12', 'yes (1)'),
  ('CC(=O)O/N=C1\C(=C2\C(=O)Nc3cc(Br)ccc32)Nc2ccccc21', 'yes (1)'),
  ('CC#CC(=O)Nc1cc2c(Nc3ccc(F)c(Cl)c3)ncnc2cn1', 'no (0)'),
  ('O=C(Nc1cccc(Nc2nccc(Nc3cccc(C(F)(F)F)c3)n2)c1)C1CC1', 'yes (1)');

Here is another compound to look at.
In the record for O=C1NC(=O)c2c1c1c3ccccc3[nH]c1c1[nH]c3cc(Br)ccc3c21 , is residual activity less than 90%?
no (0)

###

# study.system: Protein-tyrosine kinase 6 (Homo sapiens)
# settings: at 1 µM
Doc: threshold 90% (exclusive). Items with residual activity beneath it return true; others return false.

INSERT INTO assay_data (smiles_representation, qualitative_label) VALUES
  ('Cn1cnc2cc3c(Nc4cccc(Br)c4)ncnc3cc21', 'true'),
  ('Nc1nc(Nc2ccc(S(N)(=O)=O)cc2)nn1C(=S)Nc1c(F)cccc1F', 'true'),
  ('O=C1NC(=O)/C(=C\c2ccc3nccnc3c2)S1', 'false'),
  ('CO[C@H]1C[C@@H]2CC[C@@H](C)[C@@](O)(O2)C(=O)C(=O)N2CCCC[C@H]2C(=O)O[C@H]([C@H](C)C[C@@H]2CC[C@@H](O)[C@H](OC)C2)CC(=O)[C@H](C)/C=C(\C)[C@@H](O)[C@@H](OC)C(=O)[C@H](C)C[C@H](C)/C=C/C=C/C=C/1C', 'false'),
  ('CC(=O)O/N=C1\C(=C2\C(=O)Nc3cc(Br)ccc32)Nc2ccccc21', 'false'),
  ('Nc1ccc2ncnc(NCCc3ccc(Oc4ccccc4)cc3)c2c1', 'false'),
  ('COc1ccc(CNc2nc(N(CCO)CCO)nc3c2ncn3C(C)C)cc1', 'false');

In the record for O=C1c2ccccc2-[n+]2ccc3c([nH]c4ccccc43)c21 , is residual activity less than 90%?
false

###

# study.system: Tyrosine-protein kinase HCK (Homo sapiens) (UniProt P08631)
# Sequence (P08631 2-526 limits assumed): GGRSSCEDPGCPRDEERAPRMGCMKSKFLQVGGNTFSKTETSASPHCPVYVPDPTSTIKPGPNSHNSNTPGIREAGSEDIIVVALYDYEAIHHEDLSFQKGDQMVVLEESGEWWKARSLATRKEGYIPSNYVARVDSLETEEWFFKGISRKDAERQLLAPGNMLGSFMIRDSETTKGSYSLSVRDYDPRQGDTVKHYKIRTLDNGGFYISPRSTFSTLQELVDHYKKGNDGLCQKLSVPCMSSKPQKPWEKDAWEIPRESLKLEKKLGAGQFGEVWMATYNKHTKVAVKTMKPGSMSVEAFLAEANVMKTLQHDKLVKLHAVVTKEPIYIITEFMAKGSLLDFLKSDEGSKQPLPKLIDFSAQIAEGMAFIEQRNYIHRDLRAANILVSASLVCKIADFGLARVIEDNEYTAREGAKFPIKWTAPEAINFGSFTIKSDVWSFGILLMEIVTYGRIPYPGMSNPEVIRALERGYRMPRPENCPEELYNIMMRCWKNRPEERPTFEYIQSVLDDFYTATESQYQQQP
# settings: at 1 µM
// reported residual activity for each item listed
State the answer as a number, implicitly in %.

INSERT INTO measurements (compound, measurement) VALUES
  ('CC#CC(=O)Nc1cc2c(Nc3ccc(F)c(Cl)c3)ncnc2cn1', 95),
  ('O=C(O)c1ccc2c3c1cccc3c(=O)n1c3ccccc3nc21', 104),
  ('CCN(CC)CCCCN1c2ccccc2Oc2ccc(Cl)cc21', 109),
  ('Cc1cccc(-c2[nH]c(C(C)(C)C)nc2-c2ccc3c(c2)OCO3)n1', 102),
  ('COc1cccc(-c2cc(=O)c3ccccc3o2)c1N', 106);

Fill in the blank: the reported residual activity of O=c1cc(-c2cccc3c2Sc2ccccc2S3)oc(N2CCOCC2)c1 is ____.
101

Also need c1ccc(-c2n[nH]c3c2oc2ccccc23)cc1 , thanks.
98

Also need N#CCCc1ccc2c(c1)-c1[nH]c3ccc([N+](=O)[O-])cc3c1CC(=O)N2 , thanks.
27

Also need CC(=O)c1ccc(N2CCOCC2)cc1O , thanks.
97

Also need O=C1Nc2ccccc2/C1=C1/Nc2ccccc2/C1=N\OCCC(O)CO (stereo unspecified) , thanks.
8

Also need Oc1n[nH]c2nnc(-c3c(-c4ccccc4)nn4ccccc34)cc12 , thanks.
92

###

# study.system: Proto-oncogene tyrosine-protein kinase receptor Ret (Homo sapiens) (UniProt P07949)
# Sequence (P07949 whole entry): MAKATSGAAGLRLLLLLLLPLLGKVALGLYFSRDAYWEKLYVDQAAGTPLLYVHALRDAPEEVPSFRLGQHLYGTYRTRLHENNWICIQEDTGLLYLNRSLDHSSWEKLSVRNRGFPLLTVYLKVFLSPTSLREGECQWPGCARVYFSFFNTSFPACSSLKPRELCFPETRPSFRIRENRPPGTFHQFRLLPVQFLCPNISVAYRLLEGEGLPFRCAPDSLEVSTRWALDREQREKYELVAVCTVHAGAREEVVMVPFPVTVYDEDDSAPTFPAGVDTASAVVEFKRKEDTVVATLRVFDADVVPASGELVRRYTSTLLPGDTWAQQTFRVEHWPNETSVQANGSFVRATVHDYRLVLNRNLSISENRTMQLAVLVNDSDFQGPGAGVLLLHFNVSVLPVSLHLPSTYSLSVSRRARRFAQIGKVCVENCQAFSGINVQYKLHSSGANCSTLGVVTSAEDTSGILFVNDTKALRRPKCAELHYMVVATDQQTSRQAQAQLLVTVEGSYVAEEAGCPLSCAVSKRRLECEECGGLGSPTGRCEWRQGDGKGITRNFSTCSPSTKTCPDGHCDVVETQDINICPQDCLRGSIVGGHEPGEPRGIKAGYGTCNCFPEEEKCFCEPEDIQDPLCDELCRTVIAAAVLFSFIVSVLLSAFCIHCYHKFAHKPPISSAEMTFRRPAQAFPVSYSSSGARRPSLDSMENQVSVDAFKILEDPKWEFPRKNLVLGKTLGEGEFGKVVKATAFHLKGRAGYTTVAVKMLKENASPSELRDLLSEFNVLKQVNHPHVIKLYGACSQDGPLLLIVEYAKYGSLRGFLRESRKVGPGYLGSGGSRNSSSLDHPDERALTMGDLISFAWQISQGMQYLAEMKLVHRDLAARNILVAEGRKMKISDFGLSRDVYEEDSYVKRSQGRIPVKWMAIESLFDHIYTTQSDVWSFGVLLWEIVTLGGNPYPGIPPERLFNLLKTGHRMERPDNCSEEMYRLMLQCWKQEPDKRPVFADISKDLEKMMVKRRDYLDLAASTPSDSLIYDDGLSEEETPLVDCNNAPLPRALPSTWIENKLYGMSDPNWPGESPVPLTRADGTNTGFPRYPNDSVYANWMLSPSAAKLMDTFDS
# settings: at 10 µM
Assign y whenever residual activity does not fall below 10%; assign n whenever it does.

Recorded results for 3 compounds are shown here.
INSERT INTO measurements (compound, qualitative_label) VALUES
  ('COc1cc2ncnc(Nc3ccc(Oc4ccccc4)cc3)c2cc1OC', 'n'),
  ('COc1cc2ncnc(N3CCN(C(=O)Nc4ccc(Oc5ccccc5)cc4)CC3)c2cc1OC', 'y'),
  ('COc1cc2ncnc(Nc3ccc(NC(=O)c4ccccc4)cc3)c2cc1OC', 'y');

Quick check, residual activity >= 10%? O=C1NC(=O)c2c1c1c3ccccc3[nH]c1c1[nH]c3cc(Br)ccc3c21
y

Also need CC#CC(=O)Nc1cc2c(Nc3ccc(F)c(Cl)c3)ncnc2cn1 , thanks.
y

Also need O=C1Nc2ccccc2/C1=C1/Nc2ccccc2/C1=N\OCCC(O)CO (stereo not given) , thanks.
n

Also need O=C1NC(=O)c2cc(Nc3ccc(F)cc3)c(Nc3ccc(F)cc3)cc21 , thanks.
y

Also need Nc1nc(Nc2ccc(S(N)(=O)=O)cc2)nn1C(=S)Nc1c(F)cccc1F , thanks.
n

Also need CC[n+]1c(/C=C/N(C)c2ccccc2)n(-c2ccccc2)c2ccc(-c3nc4ccccc4s3)cc21 , thanks.
y

Also need Cc1nc2cc3nc(-c4cccs4)cnc3cc2n1C , thanks.
y

###

// reported residual activity for each item listed
# study.system: Ephrin type-A receptor 1 (Homo sapiens) (UniProt P21709)
# Sequence (P21709 whole entry): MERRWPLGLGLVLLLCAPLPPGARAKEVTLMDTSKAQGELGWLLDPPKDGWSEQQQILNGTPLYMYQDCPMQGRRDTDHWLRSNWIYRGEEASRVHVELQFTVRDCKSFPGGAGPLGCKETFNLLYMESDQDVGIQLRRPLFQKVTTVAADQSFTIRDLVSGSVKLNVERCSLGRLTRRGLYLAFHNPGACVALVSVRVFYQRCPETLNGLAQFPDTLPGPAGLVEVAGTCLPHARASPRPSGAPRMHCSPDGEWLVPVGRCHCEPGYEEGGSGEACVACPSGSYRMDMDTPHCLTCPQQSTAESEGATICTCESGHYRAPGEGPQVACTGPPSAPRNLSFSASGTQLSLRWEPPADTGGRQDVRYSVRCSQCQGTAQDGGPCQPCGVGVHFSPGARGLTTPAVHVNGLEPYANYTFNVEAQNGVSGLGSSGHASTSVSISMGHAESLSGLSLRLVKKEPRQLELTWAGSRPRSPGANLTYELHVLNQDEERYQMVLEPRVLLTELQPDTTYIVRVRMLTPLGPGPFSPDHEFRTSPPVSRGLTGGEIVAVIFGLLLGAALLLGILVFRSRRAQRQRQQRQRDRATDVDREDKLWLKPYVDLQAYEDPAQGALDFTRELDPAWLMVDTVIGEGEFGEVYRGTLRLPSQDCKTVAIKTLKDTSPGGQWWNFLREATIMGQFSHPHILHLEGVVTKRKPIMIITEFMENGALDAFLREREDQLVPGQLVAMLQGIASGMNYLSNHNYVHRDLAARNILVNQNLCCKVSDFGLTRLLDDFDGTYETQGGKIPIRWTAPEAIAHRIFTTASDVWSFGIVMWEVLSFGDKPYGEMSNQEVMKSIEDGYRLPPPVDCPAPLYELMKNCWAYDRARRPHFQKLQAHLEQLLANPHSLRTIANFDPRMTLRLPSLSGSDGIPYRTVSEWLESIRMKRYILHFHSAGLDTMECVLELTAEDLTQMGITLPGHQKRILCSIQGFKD
# settings: at 1 µM
State the answer as a number, implicitly in %.

Reference set, count: 2
INSERT INTO results (smiles_representation, experimental_endpoint, measurement) VALUES
  ('O=Nc1c(-c2c(O)[nH]c3ccccc23)[nH]c2ccccc12', 'residual activity', 55),
  ('COc1ccc(OC)c2c(=S)c3ccccc3[nH]c12', 'residual activity', 113);

Fill in the blank: the reported residual activity of CN(C)c1ccc(/C=C2\C(=O)Nc3ccccc32)cc1 is ____.
100

Also need COc1cc2ncnc(Nc3ccc(Oc4ccccc4)cc3)c2cc1OC , thanks.
98

Also need COc1ccc(C(=O)Nc2sc3c(c2C(N)=O)CCCC3)cc1OC , thanks.
92

Also need COc1cc2ncnc(N3CCN(C(=O)Nc4ccc(Oc5ccccc5)cc4)CC3)c2cc1OC , thanks.
85

Also need O=C1NC(=O)/C(=C\c2ccc3nccnc3c2)S1 , thanks.
95

Also need Oc1ccc(Nc2nc(-c3ccc(Cl)cc3)cs2)cc1 , thanks.
95

Also need Cc1cncc2cccc(S(=O)(=O)N3CCCN(C(=O)CN)C[C@H]3C)c12 , thanks.
54

Also need CCC(=O)Nc1ccc2ncnc(Nc3cccc(Br)c3)c2c1 , thanks.
71

Also need COc1ccc(S(=O)(=O)N(CCO)c2ccccc2CN(C)C/C=C/c2ccc(Cl)cc2)cc1 , thanks.
97

###

# study.system: Fibroblast growth factor receptor 2 (Homo sapiens) (UniProt P21802)
# Sequence (P21802 22-821 limits assumed): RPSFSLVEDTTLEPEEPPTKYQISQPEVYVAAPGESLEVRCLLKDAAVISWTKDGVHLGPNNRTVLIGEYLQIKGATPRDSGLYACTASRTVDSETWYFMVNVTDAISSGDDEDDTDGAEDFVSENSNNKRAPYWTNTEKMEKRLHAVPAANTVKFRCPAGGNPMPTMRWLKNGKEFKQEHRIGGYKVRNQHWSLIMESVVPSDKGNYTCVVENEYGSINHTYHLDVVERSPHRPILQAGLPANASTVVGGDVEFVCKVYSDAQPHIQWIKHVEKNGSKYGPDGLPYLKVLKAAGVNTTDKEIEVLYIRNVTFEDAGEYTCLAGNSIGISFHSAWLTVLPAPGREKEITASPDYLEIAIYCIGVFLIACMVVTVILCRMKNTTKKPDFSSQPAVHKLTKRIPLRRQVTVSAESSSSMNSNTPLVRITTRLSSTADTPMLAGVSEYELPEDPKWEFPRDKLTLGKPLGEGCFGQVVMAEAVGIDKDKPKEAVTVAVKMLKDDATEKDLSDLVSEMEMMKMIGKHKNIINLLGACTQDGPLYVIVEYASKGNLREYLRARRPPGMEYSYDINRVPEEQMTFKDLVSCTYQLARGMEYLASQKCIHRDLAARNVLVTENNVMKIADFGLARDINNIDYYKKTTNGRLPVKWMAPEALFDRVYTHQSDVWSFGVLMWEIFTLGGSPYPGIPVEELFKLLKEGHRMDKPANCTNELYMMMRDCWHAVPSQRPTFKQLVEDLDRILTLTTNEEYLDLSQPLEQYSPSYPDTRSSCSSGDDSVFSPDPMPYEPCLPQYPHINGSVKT
# settings: at 10 µM
experimental.endpoint: residual activity (%)
State the answer as a number, implicitly in %.

Reference set, count: 5
INSERT INTO assay_data (smiles_representation, experimental_endpoint, measurement) VALUES
  ('Cc1ccc(NC2=CC(=O)c3sc(C)nc3C2=O)cc1', 'residual activity', 92),
  ('COc1cc2ncnc(Nc3ccc(NC(=O)c4ccccc4)cc3)c2cc1OC', 'residual activity', 92),
  ('Cc1nc2cc3nc(-c4cccs4)cnc3cc2n1C', 'residual activity', 30),
  ('Ic1cccc(CSc2nnc(-c3ccncc3)o2)c1', 'residual activity', 82),
  ('c1ccc2c(-c3ccncc3)c[nH]c2c1', 'residual activity', 87);

# input for lookup
Could you share what residual activity was measured for Oc1n[nH]c2nnc(-c3c(-c4ccccc4)nn4ccccc34)cc12 , tested on Fibroblast growth factor receptor 2 (Homo sapiens) (UniProt P21802)?
91

###

# study.system: CDK6/cyclin D3 (Homo sapiens) (UniProt P30281+Q00534)
# settings: at 10 µM
# Description: Millipore: Percentage of residual kinase activity of CDK6 at 10uM relative to control. Control inhibitor: Phosphoric acid* at 0.3uM. Buffer: 8 mM MOPS pH 7.0, 0.2 mM EDTA
// reported residual activity for each item listed
State the answer as a number, implicitly in %.

INSERT INTO results (compound, measurement) VALUES
  ('Cc1cncc2cccc(S(=O)(=O)N3CCCN(C(=O)CN)C[C@H]3C)c12', 84),
  ('CCOc1cc2ncnc(Nc3cccc(Br)c3)c2cc1OCC', 88);

Could you share what residual activity was measured for O=C1Nc2ccccc2/C1=C1/Nc2ccccc2/C1=N\OCCC(O)CO (stereo not drawn) , tested on CDK6/cyclin D3 (Homo sapiens) (UniProt P30281+Q00534)?
4

Also need Nc1n[nH]c2nnc(-c3c(-c4ccccc4)nn4ccccc34)cc12 , thanks.
43

Also need CN(C)c1ccc(/C=C2\C(=O)Nc3ccccc32)cc1 , thanks.
50

Also need O=C1NC(=O)/C(=C\c2ccc3nccnc3c2)S1 , thanks.
86

Also need Cc1cc2ncc(-c3ccccc3)nc2cc1C , thanks.
88

Also need Oc1c2ccccc2c2c3c(cccc13)N=N2 , thanks.
31

Also need N#C/C(=C(\N)Sc1ccc(N)cc1)c1ccccc1C(F)(F)F , thanks.
88

Also need N#CCCc1ccc2c(c1)-c1[nH]c3ccc([N+](=O)[O-])cc3c1CC(=O)N2 , thanks.
8

Also need N#CC(C#N)=C(N)/C(C#N)=C/c1ccc(O)cc1 , thanks.
87
